# Tested on: ragweed (common ragweed, Ambrosia elatior)
# experimental.protocol: Test A postemergence
# Format: in vivo
# particulars: 125 g ai/ha, postemergence; visual rating after approx. 10 d, 0 to 100 scale (0 no effect, 100 complete control)
The reader will find reported Plant response rating, Ragweed values listed item by item below.
result.type: Plant response rating, Ragweed

>>> reported_value("Cc1ccc(C2CN(C)C(=O)C2C(=O)Nc2ccc(F)cc2F)c(F)c1 (stereo not drawn) [Compound 559]")
0
>>> reported_value("Cc1ccc(C2CNC(=O)C2C(=O)Nc2ccc(F)cc2F)cc1C(F)(F)F (racemic) [Compound 680]")
0
>>> reported_value("CN1CC(c2cc(F)cc(F)c2)C(C(=O)Nc2cccc(F)c2F)C1=O (stereo not drawn) [Compound 644]")
0
>>> reported_value("Cc1ccc(C2CN(C)C(=O)C2C(=O)Nc2ccccc2C(F)(F)F)cc1 (stereo not drawn) [Compound 665]")
0
>>> reported_value("CN1CC(c2ccc(Br)cc2)C(C(=O)Nc2ccccc2F)C1=O (stereo not drawn) [Compound 563]")
0
>>> reported_value("CN1CC(c2ccc(Br)cc2)C(C(=O)Nc2cccc(F)c2F)C1=O (stereo not drawn) [Compound 564]")
50
>>> reported_value("O=C1NCC(c2ccsc2Cl)C1C(=O)Nc1cccc(F)c1F (stereo not drawn) [Compound 600]")
0
>>> reported_value("Cc1ccc(C2CNC(=O)C2C(=O)Nc2ccc(F)cc2F)cc1C(F)(F)F (racemic) [Compound 655]")
0
>>> reported_value("O=C1NCC(c2cccc(C(F)(F)F)c2F)C1C(=O)Nc1cccc(F)c1F (stereo not drawn) [Compound 591]")
0
